# ASSAY_DETAILS: Plasma concentrations after oral dosing (solution in apple juice) of human volunteers, Example 1A
# Assay type: in vivo
# CONDITION_DETAILS: human, plasma, po, 7.5 mg, subject 5 (91 kg); 7.5 mg oral; 2 h
READOUT_TYPE: concentration at 2 h (ng/mL)
State the answer as a number, implicitly in ng/mL.

## Task Write down concentration at 2 h measured for item COc1cc2c(cc1OC)[C@H]1C[C@@H](O)[C@H](CC(C)C)CN1CC2 [(+)-α-dihydrotetrabenazine]
## Result 10.7

###

# ASSAY_DETAILS: Plasma concentrations after oral dosing (solution in apple juice) of human volunteers, Example 1A
# Type: in vivo
# CONDITION_DETAILS: human, plasma, po, 7.5 mg, subject 3 (129 kg); 7.5 mg oral; 2 h
READOUT_TYPE: concentration at 2 h (ng/mL)
State the answer as a number, implicitly in ng/mL.

## Task Write down concentration at 2 h measured for item COc1cc2c(cc1OC)[C@H]1C[C@@H](O)[C@H](CC(C)C)CN1CC2 [(+)-α-dihydrotetrabenazine]
## Result 5.03

###

# ASSAY_DETAILS: Plasma concentrations after oral dosing (solution in apple juice) of human volunteers, Example 1A
# Type: in vivo
# CONDITION_DETAILS: human, plasma, po, 15 mg, subject 2 (76 kg); 15 mg oral; 3 h
READOUT_TYPE: concentration at 3 h (ng/mL)
State the answer as a number, implicitly in ng/mL.

## Task Write down concentration at 3 h measured for item COc1cc2c(cc1OC)[C@H]1C[C@@H](O)[C@H](CC(C)C)CN1CC2 [(+)-α-dihydrotetrabenazine]
## Result 46.5

###

# ASSAY_DETAILS: Plasma concentrations after oral dosing (solution in apple juice) of human volunteers, Example 1A
# Assay type: in vivo
# CONDITION_DETAILS: human, plasma, po, 22.5 mg, subject 3 (129 kg); 22.5 mg oral; 1.5 h
READOUT_TYPE: concentration at 1.5 h (ng/mL)
State the answer as a number, implicitly in ng/mL.

## Task Write down concentration at 1.5 h measured for item COc1cc2c(cc1OC)[C@H]1C[C@@H](O)[C@H](CC(C)C)CN1CC2 [(+)-α-dihydrotetrabenazine]
## Result 29.8

###

# ASSAY_DETAILS: Plasma concentrations after oral dosing (solution in apple juice) of human volunteers, Example 1A
# Format: in vivo
# CONDITION_DETAILS: human, plasma, po, 7.5 mg, subject 3 (129 kg); 7.5 mg oral; 3 h
# Protocol: (+)-α-Dihydrotetrabenazine in defined amounts was administered by oral dosing (as a solution in apple juice) to six human volunteers. […] At 60 minutes after drug administration, PET scans were initiated and these were stopped at 120 minutes after drug administration. The experiment was carried out at dosages of 7.5 mg, 15 mg and 22.5 mg. […]
READOUT_TYPE: concentration at 3 h (ng/mL)
State the answer as a number, implicitly in ng/mL.

## Task Write down concentration at 3 h measured for item COc1cc2c(cc1OC)[C@H]1C[C@@H](O)[C@H](CC(C)C)CN1CC2 [(+)-α-dihydrotetrabenazine]
## Result 6.96

###

# ASSAY_DETAILS: Plasma concentrations after oral dosing (solution in apple juice) of human volunteers, Example 1A
# Assay type: in vivo
# CONDITION_DETAILS: human, plasma, po, 7.5 mg, subject 2 (76 kg); 7.5 mg oral; 2 h
READOUT_TYPE: concentration at 2 h (ng/mL)
State the answer as a number, implicitly in ng/mL.

## Task Write down concentration at 2 h measured for item COc1cc2c(cc1OC)[C@H]1C[C@@H](O)[C@H](CC(C)C)CN1CC2 [(+)-α-dihydrotetrabenazine]
## Result 14
